These data points were gathered from the supplement of paper PMC10567573.

B1: SLC35F2 (parent)
chain: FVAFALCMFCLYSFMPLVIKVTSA

Variants of: B1
PROTOCOL_DETAILS: protein stability index of a GFP-peptide fusion (GPS, HEK-293T) (PSI 1-6); higher = more stable;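 further: lentivirally expressed fusions sorted by FACS into six bins by GFP to DsRed ratio, PSI derived from sequencing read proportions per bin multiplied by bin number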
CONDITION_LABEL: c terminus: a fixed tail appended
Answer each item with its documented protein stability index.
Answer with the value's number alone.

q: Form field: reported protein stability index of A24H
a: 3.79

q: Please do the same for I19W as well.
a: 4.11

q: Let us now turn to F9S
a: 2.61

q: Field entry: A24N
a: 2.63

q: // same read-out, input: P16N
a: 3.51

q: Likewise for A5F ?
a: 1.59
